- tested target: GLP-1 receptor (Homo sapiens, UniProt P43220)
- Sequence (P43220 24-463): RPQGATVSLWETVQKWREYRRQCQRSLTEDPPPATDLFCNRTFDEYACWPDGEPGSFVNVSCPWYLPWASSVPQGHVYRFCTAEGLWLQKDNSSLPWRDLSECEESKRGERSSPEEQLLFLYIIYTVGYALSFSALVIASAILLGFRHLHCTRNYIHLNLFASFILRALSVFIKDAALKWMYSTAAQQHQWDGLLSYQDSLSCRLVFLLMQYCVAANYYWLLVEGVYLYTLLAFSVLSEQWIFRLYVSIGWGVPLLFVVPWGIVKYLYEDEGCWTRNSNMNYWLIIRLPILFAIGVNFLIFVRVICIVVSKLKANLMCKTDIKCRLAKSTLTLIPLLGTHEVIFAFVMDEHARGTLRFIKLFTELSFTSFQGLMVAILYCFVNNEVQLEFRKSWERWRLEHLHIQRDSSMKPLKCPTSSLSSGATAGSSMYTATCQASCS
- test: Agonist activity against GLP-1 receptor, CRE-luciferase reporter (ONE-Glo) in CHO-K1/CRE-luc/GLP-1 receptor cells
- run parameters: 6 h incubation, luciferase readout
readout type: EC50 (nM)

# count of solved cases: 4
CC1(c2ccc(Cl)cc2F)Oc2cccc(C3=CCN(Cc4nc5ccc(C(=O)O)cc5n4C[C@@H]4CCO4)CC3)c2O1 (stereo partly shown)
0.92
N#Cc1ccc(COc2cccc(C3=CCN(Cc4nc5ccc(C(=O)O)cc5n4C[C@@H]4CCO4)CC3)n2)c(F)c1
0.12
N#Cc1ccc(CSc2nc(C3=CCN(Cc4nc5ccc(C(=O)O)cc5n4C[C@@H]4CCO4)CC3)ccc2F)c(F)c1
0.85
CC(Oc1cccc(C2=CCN(Cc3nc4ccc(C(=O)O)cc4n3C[C@@H]3CCO3)CC2)n1)c1ccc(Cl)cc1F (stereo partly shown)
1.38

I = C[C@]1(c2ccc(Cl)cc2F)Oc2cccc(C3=CCN(Cc4nc5ccc(C(=O)O)cc5n4C[C@@H]4CCO4)CC3)c2O1
II = C[C@]1(c2ccc(Cl)cc2F)Oc2cccc(C3=CCN(Cc4nc5ccc(C(=O)O)nc5n4C[C@@H]4CCO4)CC3)c2O1
III = N#Cc1ccc(CSc2cccc(C3=CCN(Cc4nc5ccc(C(=O)O)cc5n4C[C@@H]4CCO4)CC3)n2)c(F)c1
Sort by EC50, descending. Response field: labels, in requested order.
III, II, I
(III: 1.93 nM, II: 0.45 nM, I: 0.12 nM)

Source of measurements: patent US12590081B2
